target: human CB2 receptors (Homo sapiens, UniProt P34972); construct: expressed in transfected cells; host or cells: CHO cells; experiment: cAMP assay, human CB2; type: cell-based; details: functional cAMP assay, CHO cells expressing human CB2; read-out: Ec50: CB2 - hu cAMP
Sequence (P34972 whole entry): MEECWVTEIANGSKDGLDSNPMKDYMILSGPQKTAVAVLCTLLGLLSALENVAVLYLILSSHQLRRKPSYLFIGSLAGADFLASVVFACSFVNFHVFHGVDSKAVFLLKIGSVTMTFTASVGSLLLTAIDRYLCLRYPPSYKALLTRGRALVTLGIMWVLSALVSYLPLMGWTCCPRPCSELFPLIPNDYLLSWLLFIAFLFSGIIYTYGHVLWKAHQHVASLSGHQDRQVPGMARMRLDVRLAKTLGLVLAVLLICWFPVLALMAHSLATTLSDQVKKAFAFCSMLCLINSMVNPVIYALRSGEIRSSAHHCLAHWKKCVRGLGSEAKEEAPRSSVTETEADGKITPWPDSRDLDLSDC

[
  {
    "molecule": "CCNC(=O)CN1CCN(C(=O)n2nnn(-c3cccc(Cl)c3)c2=O)CC1 [Example 104]",
    "targetOrTestSystem": "human CB2 receptors (Homo sapiens, UniProt P34972)",
    "EC50 [µM]": 0.0127
  },
  {
    "molecule": "CC(C(=O)N1CCCC1)N1CCN(C(=O)n2nnn(-c3cccc(OC(F)(F)F)c3)c2=O)CC1 (stereo not shown) [Example 117]",
    "targetOrTestSystem": "human CB2 receptors (Homo sapiens, UniProt P34972)",
    "EC50 [µM]": 0.106
  },
  {
    "molecule": "CN(CCc1ccccc1)C(=O)n1nnn(-c2cccc(F)c2)c1=O [Example 5]",
    "targetOrTestSystem": "human CB2 receptors (Homo sapiens, UniProt P34972)",
    "EC50 [µM]": 0.0008
  },
  {
    "molecule": "CN(C(=O)n1nnn(C2CC2)c1=O)c1cccnc1 [Example 35]",
    "targetOrTestSystem": "human CB2 receptors (Homo sapiens, UniProt P34972)",
    "EC50 [µM]": 0.161
  },
  {
    "molecule": "CCCCNC(=O)CN1CCN(C(=O)n2nnn(-c3cccc(Cl)c3)c2=O)CC1 [Example 107]",
    "targetOrTestSystem": "human CB2 receptors (Homo sapiens, UniProt P34972)",
    "EC50 [µM]": 0.0029
  },
  {
    "molecule": "CCOCCN(C)C(=O)n1nnn(-c2cccc(Cl)c2)c1=O [Example 111]",
    "targetOrTestSystem": "human CB2 receptors (Homo sapiens, UniProt P34972)",
    "EC50 [µM]": 0.0015
  },
  {
    "molecule": "COCC1CCCCN1C(=O)n1nnn(-c2cccc(F)c2)c1=O (stereo not shown) [Example 34]",
    "targetOrTestSystem": "human CB2 receptors (Homo sapiens, UniProt P34972)",
    "EC50 [µM]": 0.019
  }
]

----------
molecular target: human CB2 receptors (Homo sapiens, UniProt P34972); construct: expressed in transfected cells; host or cells: CHO cells; assay: cAMP assay, human CB2; format: cell-based; conditions: functional cAMP assay, CHO cells expressing human CB2; read-out: Ec50: CB2 - hu cAMP
Recorded measurements of EC50, one per entry
quantityKind: EC50 (nM)

[
  {
    "compound": "CCNC(=O)CN1CCN(C(=O)n2nnn(-c3ccc(Cl)cc3)c2=O)CC1",
    "measuredResult": 10.6
  },
  {
    "compound": "Cc1cccc(-n2nnn(C(=O)N3CCOCC3)c2=O)c1",
    "measuredResult": 8.4
  },
  {
    "compound": "CC1CCCN1C(=O)n1nnn(-c2cccc(F)c2)c1=O (stereo not shown)",
    "measuredResult": 6.7
  },
  {
    "compound": "O=C(N1CCOCC1)n1nnn(-c2ccc(F)c(F)c2)c1=O",
    "measuredResult": 7
  },
  {
    "compound": "CC1(C)CCN(C(=O)n2nnn(-c3cccc(Cl)c3)c2=O)CC1",
    "measuredResult": 0.6
  },
  {
    "compound": "CCN(CCOC)C(=O)n1nnn(-c2cccc(OC(F)(F)F)c2)c1=O",
    "measuredResult": 4
  },
  {
    "compound": "O=C(CN1CCN(C(=O)n2nnn(-c3cccc(F)c3)c2=O)CC1)N1CCCC1",
    "measuredResult": 7.1
  },
  {
    "compound": "CCC(=O)N1CCN(C(=O)n2nnn(-c3cccc(F)c3)c2=O)CC1",
    "measuredResult": 497
  },
  {
    "compound": "O=C(N1CCOCC1)n1nnn(-c2cccc(OC(F)(F)F)c2)c1=O",
    "measuredResult": 4.4
  },
  {
    "compound": "O=C(N1CCC2(CCOC2)CC1)n1nnn(-c2cccc(F)c2)c1=O",
    "measuredResult": 2.5
  },
  {
    "compound": "N#CC1CCN(C(=O)n2nnn(-c3cccc(F)c3)c2=O)CC1",
    "measuredResult": 6.8
  },
  {
    "compound": "O=C(N1CCOCC1)n1nnn(-c2cccc(C(F)(F)F)c2)c1=O",
    "measuredResult": 9.2
  },
  {
    "compound": "CC(=O)N[C@H]1CCN(C(=O)n2nnn(-c3ccc(Cl)cc3)c2=O)C1",
    "measuredResult": 32.1
  },
  {
    "compound": "Cn1ccc(C2CCCN2C(=O)n2nnn(-c3cccc(F)c3)c2=O)n1 (stereo not shown)",
    "measuredResult": 25
  },
  {
    "compound": "O=C(CN1CCN(C(=O)n2nnn(-c3ccc(Cl)cc3)c2=O)CC1)N1CCCC1",
    "measuredResult": 12.9
  },
  {
    "compound": "CC(=O)NC1CCN(C(=O)n2nnn(-c3cccc(F)c3)c2=O)C1 (stereo not shown)",
    "measuredResult": 31.4
  }
]
